meta.source: paper PMC10938783

# assayed_target: PI3Kδ (PIK3CD/PIK3R1) (Homo sapiens, UniProt O00329)
# Sequence (O00329 whole entry): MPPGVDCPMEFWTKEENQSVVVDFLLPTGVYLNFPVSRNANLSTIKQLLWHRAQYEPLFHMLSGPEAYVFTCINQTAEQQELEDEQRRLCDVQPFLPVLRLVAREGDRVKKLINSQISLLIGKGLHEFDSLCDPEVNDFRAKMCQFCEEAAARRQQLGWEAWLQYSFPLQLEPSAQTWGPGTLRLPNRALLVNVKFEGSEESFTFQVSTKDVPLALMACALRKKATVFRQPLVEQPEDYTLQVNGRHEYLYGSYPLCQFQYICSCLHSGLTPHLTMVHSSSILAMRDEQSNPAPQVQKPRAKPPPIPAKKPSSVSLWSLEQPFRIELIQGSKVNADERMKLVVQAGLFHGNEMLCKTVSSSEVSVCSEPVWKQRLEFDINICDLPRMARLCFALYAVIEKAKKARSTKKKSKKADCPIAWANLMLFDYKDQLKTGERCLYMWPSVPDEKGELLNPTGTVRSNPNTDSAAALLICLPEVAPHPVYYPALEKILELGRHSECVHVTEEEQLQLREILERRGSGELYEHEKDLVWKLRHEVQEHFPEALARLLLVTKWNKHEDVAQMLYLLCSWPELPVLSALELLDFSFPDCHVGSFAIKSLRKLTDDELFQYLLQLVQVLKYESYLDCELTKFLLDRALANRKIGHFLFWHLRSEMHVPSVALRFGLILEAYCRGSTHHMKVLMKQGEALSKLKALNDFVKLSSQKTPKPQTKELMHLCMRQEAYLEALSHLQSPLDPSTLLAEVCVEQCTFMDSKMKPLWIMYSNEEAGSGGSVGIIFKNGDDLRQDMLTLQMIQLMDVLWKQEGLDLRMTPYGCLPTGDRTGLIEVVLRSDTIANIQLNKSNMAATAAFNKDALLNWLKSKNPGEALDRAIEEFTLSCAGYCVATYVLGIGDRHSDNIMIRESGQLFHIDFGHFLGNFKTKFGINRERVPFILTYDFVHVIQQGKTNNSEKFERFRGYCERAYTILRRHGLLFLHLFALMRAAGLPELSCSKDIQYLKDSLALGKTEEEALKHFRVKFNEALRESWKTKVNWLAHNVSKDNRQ
# Sequence (P27986 whole entry partner): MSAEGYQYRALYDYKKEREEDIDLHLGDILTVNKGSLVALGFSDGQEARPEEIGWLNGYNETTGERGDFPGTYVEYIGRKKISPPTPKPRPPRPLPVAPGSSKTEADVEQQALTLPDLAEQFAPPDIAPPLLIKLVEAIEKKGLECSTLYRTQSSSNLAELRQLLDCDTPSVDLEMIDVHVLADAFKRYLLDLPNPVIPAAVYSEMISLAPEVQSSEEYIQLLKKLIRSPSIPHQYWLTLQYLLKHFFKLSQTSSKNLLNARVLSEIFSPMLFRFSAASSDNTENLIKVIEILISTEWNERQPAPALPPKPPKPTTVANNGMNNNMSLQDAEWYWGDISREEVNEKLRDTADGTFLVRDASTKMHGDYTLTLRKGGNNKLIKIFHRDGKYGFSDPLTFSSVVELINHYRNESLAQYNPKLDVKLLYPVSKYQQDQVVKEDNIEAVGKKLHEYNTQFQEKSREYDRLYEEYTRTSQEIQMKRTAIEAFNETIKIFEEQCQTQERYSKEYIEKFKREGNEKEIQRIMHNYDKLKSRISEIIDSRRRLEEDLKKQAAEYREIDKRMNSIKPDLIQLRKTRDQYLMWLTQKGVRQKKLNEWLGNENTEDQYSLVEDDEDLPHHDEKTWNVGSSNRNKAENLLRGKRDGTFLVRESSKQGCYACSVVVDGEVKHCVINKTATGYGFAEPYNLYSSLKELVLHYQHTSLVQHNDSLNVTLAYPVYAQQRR
# test_protocol: Adapta kinase assay
recorded_endpoint: IC50

**Query** Give the reported IC50 for COc1cc(N)cc2c1nc(C(F)F)n2-c1nc(N2CCCOCC2)nc(N2CCOCC2)n1 (system: PI3Kδ (PIK3CD/PIK3R1) (Homo sapiens, UniProt O00329)).
**Result** 1.22 nM

====

# test_protocol: Acute toxicity study
# Format: in vivo
# conditions_used: both sexes, mouse, in vivo, oral; BALB/c mice, acute toxicity
recorded_endpoint: LD50 at 7 days

**Query** I'd like to know its LD50 at 7 days. The compound in question is COc1cc(N)cc2c1nc(C(F)F)n2-c1nc(N2CCCOCC2)nc(N2CCOCC2)n1
**Result** 2140 mg/kg

====

# test_protocol: Plasma metabolic stability assay
# Type: in vitro ADME
# conditions_used: mouse plasma, 37°C, 120 min incubation
recorded_endpoint: half-life at 1 µM (min)
Please respond with the number in min and leave the unit unwritten.

**Query** I'd like to know its half-life at 1 µM. The compound in question is CCN(CC)CCOC(=O)c1ccc(N)cc1 [Procaine, reference compound]
**Result** 37.8

====

# test_protocol: Liver microsome metabolic stability assay
# conditions_used: mouse, microsomes
recorded_endpoint: microsomal CLint at 1 µM (µL/min/mg)
Please respond with the number in µL/min/mg and leave the unit unwritten.

**Query** I'd like to know its microsomal CLint at 1 µM. The compound in question is Cc1ncc2n1-c1ccc(Cl)cc1C(c1ccccc1F)=NC2 [Midazolam, reference compound]
**Result** 1120

====

# test_protocol: Liver microsome metabolic stability assay
# conditions_used: mouse, liver microsomes
recorded_endpoint: half-life at 1 µM (min)
Please respond with the number in min and leave the unit unwritten.

**Query** I'd like to know its half-life at 1 µM. The compound in question is COc1cc(N)cc2c1nc(C(F)F)n2-c1nc(N2CCCOCC2)nc(N2CCOCC2)n1 [KTC1101]
**Result** 40.7

====

# test_protocol: Liver microsome metabolic stability assay
# conditions_used: mouse, liver microsomes
recorded_endpoint: microsomal CLint at 1 µM
Record the result as a number with its unit.

**Query** I'd like to know its microsomal CLint at 1 µM. The compound in question is COc1cc(N)cc2c1nc(C(F)F)n2-c1nc(N2CCCOCC2)nc(N2CCOCC2)n1
**Result** 34 µL/min/mg

====

# test_protocol: Pharmacokinetic study of oral administration
# Format: in vivo
# conditions_used: mouse, blood, BALB/c male mice, 100 mg/kg p.o.
recorded_endpoint: AUC(0-t) (ng·h/mL)
Please respond with the number in ng·h/mL and leave the unit unwritten.

**Query** I'd like to know its AUC(0-t). The compound in question is COc1cc(N)cc2c1nc(C(F)F)n2-c1nc(N2CCCOCC2)nc(N2CCOCC2)n1
**Result** 9330
